target: Solute carrier family 2, facilitated glucose transporter member 1 (Homo sapiens) (UniProt P11166); assay: ST_JUDE_LEISH: Cytotoxicity at 2uM final concentration against transgenic Leishmania Mexicana promastigotes LmGLUT1 that are glucose transport deficient and complemented with the human glucose transporter GLUT1. Activity is measured by DNA content using SYBR green in vitro; assay type: functional
Sequence (P11166 whole entry): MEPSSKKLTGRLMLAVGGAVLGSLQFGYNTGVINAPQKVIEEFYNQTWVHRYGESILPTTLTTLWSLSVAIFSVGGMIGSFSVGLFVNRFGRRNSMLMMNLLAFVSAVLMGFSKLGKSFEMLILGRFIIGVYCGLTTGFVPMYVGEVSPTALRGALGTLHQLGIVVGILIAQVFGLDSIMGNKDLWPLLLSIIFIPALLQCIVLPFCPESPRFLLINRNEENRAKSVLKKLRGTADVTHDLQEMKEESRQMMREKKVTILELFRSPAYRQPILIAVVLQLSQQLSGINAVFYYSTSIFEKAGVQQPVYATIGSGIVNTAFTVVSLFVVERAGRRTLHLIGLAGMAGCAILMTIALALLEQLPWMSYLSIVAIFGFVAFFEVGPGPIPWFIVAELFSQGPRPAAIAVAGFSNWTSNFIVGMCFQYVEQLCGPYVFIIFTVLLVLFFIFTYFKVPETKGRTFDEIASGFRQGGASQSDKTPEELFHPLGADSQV
measured_parameter: inhibition
The reply should consist of the numeric value with the unit placed after it.

Below are worked cases with known answers.
Please look up its inhibition: `CCOc1cc(Cc2cnc(N)nc2N)cc(OCC)c1OCC`
4.33%

Please look up its inhibition: CC(N)(Cc1ccc(O)cc1)c1nnn[nH]1 (stereo not given)
-0.06%

Others:
Please look up its inhibition: `COc1ccc(CNC(=O)c2cnc3c(O)cccc3c2Nc2cccc(NC(=O)c3ccc(Cl)c([N+](=O)[O-])c3)c2)cc1`
0.79%

Please look up its inhibition: `O=c1cc(NCCCNCc2ccc(C(F)(F)F)cc2F)[nH]c2ccccc12`
2.19%

Please look up its inhibition: NC1CCCN(Cc2ccc(-c3ccc(-c4nc5ccccc5[nH]4)s3)cc2)C1 (stereo not given)
8.95%
